# System: galium (catchweed bedstraw, Galium aparine)
# assay name: Test D controlled growth environment herbicide test, pre- and postemergence
# Assay type: in vivo
# condition notes: Postemergence, 125 g ai/ha; visual rating on scale 0 (no effect) to 100 (complete control), 14 to 21 d

{"columns": ["compound", "Plant response rating, Galium"],
 "data": [
  ["CCCC(=O)Oc1c(C)nn(C)c(=O)c1-c1c(C)sc2ccc(C)cc12", 95],
  ["CC(=O)Oc1c(C)nn(C)c(=O)c1-c1c(C)sc2ccc(Cl)cc12", 100],
  ["Cc1cc2ccccc2c(-c2c(O)c(C)nn(C)c2=O)c1C", 100],
  ["Cc1nn(C)c(=O)c(-c2cccc3ccc(Br)cc23)c1O", 100],
  ["Cc1nn(C)c(=O)c(-c2ccc(F)c3ccccc23)c1O", 100],
  ["Cc1nn(C)c(=O)c(-c2c(C)sc3ccc(Br)cc23)c1O", 98],
  ["Cn1nc(Br)c(O)c(-c2cccc3ccccc23)c1=O", 100],
  ["Cc1ccc2ccccc2c1-c1c(OC(=O)OC(C)C)c(C)nn(C)c1=O", 100],
  ["CCc1sc2c(C)cc(C)cc2c1-c1c(O)c(C)nn(C)c1=O", 90],
  ["Cc1ccc2ccccc2c1-c1c(O)c(Br)nn(C)c1=O", 100]
]}

---

# Test system: blackgrass (Alopecurus myosuroides)
# assay name: Test C greenhouse herbicide test, pre- and postemergence
# Type: in vivo
# condition notes: Postemergence, 125 g ai/ha; scale 0 to 100, 0 is no effect, 100 is complete control
Lab note: compare Plant response rating, Blackgrass with 40, writing true (1) if less and false (0) if equal or more.

{"columns": ["compound", "study target", "class"],
 "data": [
  ["Cc1cc2ccccc2c(-c2c(O)c(C)nn(C)c2=O)c1C", "blackgrass (Alopecurus myosuroides)", "true (1)"],
  ["CCCC(=O)Oc1c(C)nn(C)c(=O)c1-c1c(CC)sc2ccc(C)cc12", "blackgrass (Alopecurus myosuroides)", "true (1)"],
  ["Cc1nn(C)c(=O)c(-c2cccc3ccccc23)c1O", "blackgrass (Alopecurus myosuroides)", "true (1)"],
  ["CCc1ccc2ccccc2c1-c1c(O)c(C)nn(C)c1=O", "blackgrass (Alopecurus myosuroides)", "false (0)"],
  ["Cc1cc(C)c2sc(C)c(-c3c(O)c(C)nn(C)c3=O)c2c1", "blackgrass (Alopecurus myosuroides)", "false (0)"],
  ["Cn1nc(Br)c(O)c(-c2cccc3ccccc23)c1=O", "blackgrass (Alopecurus myosuroides)", "true (1)"],
  ["Cc1ccc2ccccc2c1-c1c(O)c(I)nn(C)c1=O", "blackgrass (Alopecurus myosuroides)", "false (0)"]
]}

---

# maps each entry to its Wheat plant response rating
# Test system: wheat (winter wheat, Triticum aestivum)
# assay name: Test C greenhouse herbicide test, pre- and postemergence
# Type: in vivo
# condition notes: Postemergence, 31 g ai/ha; 0 to 100 scale (0 no effect, 100 complete control)

{"columns": ["compound", "Wheat plant response rating"],
 "data": [
  ["Cn1nc(Br)c(O)c(-c2cccc3ccccc23)c1=O", 0],
  ["Cc1ccc2ccccc2c1-c1c(OC(=O)OC(C)C)c(C)nn(C)c1=O", 30],
  ["Cc1nn(C)c(=O)c(-c2ccc(F)c3ccccc23)c1O", 10],
  ["Cc1nn(C)c(=O)c(-c2cccc3ccccc23)c1O", 0],
  ["Cc1cc(C)c2sc(C)c(-c3c(O)c(C)nn(C)c3=O)c2c1", 0],
  ["CCC(=O)Oc1c(C)nn(C)c(=O)c1-c1c(C)ccc2ccccc12", 0],
  ["Cc1nn(C)c(=O)c(-c2c(C)sc3ccc(Br)cc23)c1O", 0],
  ["Cc1ccc2ccccc2c1-c1c(O)c(I)nn(C)c1=O", 5],
  ["CCc1sc2ccc(C)cc2c1-c1c(O)c(C)nn(C)c1=O", 0]
]}

---

# Test system: windgrass (Apera spica-venti)
# assay name: Test D controlled growth environment herbicide test, pre- and postemergence
# Assay type: in vivo
# condition notes: Postemergence, 125 g ai/ha; visual rating on scale 0 (no effect) to 100 (complete control), 14 to 21 d
Measured Plant response rating, Windgrass by item

{"columns": ["compound", "study target", "Plant response rating, Windgrass"],
 "data": [
  ["Cc1nn(C)c(=O)c(-c2c(C)sc3ccc(Br)cc23)c1O [Compound 22]", "windgrass (Apera spica-venti)", 35],
  ["Cc1cc(C)c2ccccc2c1-c1c(O)c(C)nn(C)c1=O [Compound 21]", "windgrass (Apera spica-venti)", 85],
  ["COC(=O)Oc1c(C)nn(C)c(=O)c1-c1c(C)sc2ccc(C)cc12 [Compound 80]", "windgrass (Apera spica-venti)", 95],
  ["Cn1nc(Br)c(O)c(-c2cccc3ccccc23)c1=O [Compound 20]", "windgrass (Apera spica-venti)", 30],
  ["Cc1ccc2ccccc2c1-c1c(OC(=O)OC(C)C)c(C)nn(C)c1=O [Compound 72]", "windgrass (Apera spica-venti)", 80]
]}

---

# System: ragweed (common ragweed, Ambrosia elatior)
# assay name: Test C greenhouse herbicide test, pre- and postemergence
# Type: in vivo
# condition notes: Preemergence, 62 g ai/ha; scale 0 to 100, 0 is no effect, 100 is complete control

{"columns": ["compound", "Plant response rating, Ragweed"],
 "data": [
  ["Cc1cc(C)c2sc(C)c(-c3c(O)c(C)nn(C)c3=O)c2c1", 100],
  ["CC(=O)Oc1c(C)nn(C)c(=O)c1-c1c(C)sc2ccc(Cl)cc12", 90],
  ["Cc1nn(C)c(=O)c(-c2cccc3ccccc23)c1O", 50],
  ["Cc1ccc2ccccc2c1-c1c(O)c(C(F)(F)F)nn(C)c1=O", 75],
  ["CC(=O)Oc1c(Cl)nn(C)c(=O)c1-c1c(C)sc2ccc(C(F)(F)F)cc12", 40],
  ["CCc1ccc2ccccc2c1-c1c(O)c(C)nn(C)c1=O", 90],
  ["Cc1nn(C)c(=O)c(-c2c(C)sc3c(C)cc(Cl)cc23)c1O", 40],
  ["CCc1oc2ccc(C)cc2c1-c1c(O)c(C)nn(C)c1=O", 0]
]}

---

# System: morningglory (Ipomoea coccinea)
# assay name: Test C greenhouse herbicide test, pre- and postemergence
# Format: in vivo
# condition notes: postemergence, 62 g ai/ha; scale 0 to 100, 0 no effect, 100 complete control
readout label: Morningglory plant response rating

{"columns": ["compound", "readout label", "result"],
 "data": [
  ["Cc1cc(C)c2sc(C)c(-c3c(O)c(C)nn(C)c3=O)c2c1", "Morningglory plant response rating", 100],
  ["Cc1sc2ccccc2c1-c1c(O)c(Cl)nn(C)c1=O", "Morningglory plant response rating", 95],
  ["CCc1oc2ccc(C)cc2c1-c1c(O)c(C)nn(C)c1=O", "Morningglory plant response rating", 90],
  ["Cc1cc(C)c2ccccc2c1-c1c(O)c(C)nn(C)c1=O", "Morningglory plant response rating", 100],
  ["Cc1ccc2ccccc2c1-c1c(OC(=O)OC(C)C)c(C)nn(C)c1=O", "Morningglory plant response rating", 90],
  ["CC(=O)Oc1c(C)nn(C)c(=O)c1-c1c(C)cc(C)c2ccccc12", "Morningglory plant response rating", 95],
  ["Cn1nc(Br)c(O)c(-c2cccc3ccccc23)c1=O", "Morningglory plant response rating", 100],
  ["COC(=O)Oc1cnn(C)c(=O)c1-c1c(C)sc2ccccc12", "Morningglory plant response rating", 40]
]}

---

# System: chamomile (scentless chamomile, Matricaria inodora)
# assay name: Test D controlled growth environment herbicide test, pre- and postemergence
# Type: in vivo
# condition notes: Postemergence, 31 g ai/ha; scale 0 to 100 (0 no effect, 100 complete control)
Hi! Could you tag entries with Chamomile plant response rating below 80 as label 1, and those at or above as label 0? Much appreciated.

{"columns": ["molecule", "class"],
 "data": [
  ["Cc1cc(C)c2ccccc2c1-c1c(O)c(C)nn(C)c1=O [Compound 21]", "label 0"],
  ["CCc1sc2c(C)cc(C)cc2c1-c1c(O)c(C)nn(C)c1=O [Compound 57]", "label 0"],
  ["Cc1ccc2sc(C)c(-c3c(OC(=O)OC(C)C)c(C)nn(C)c3=O)c2c1 [Compound 66]", "label 0"],
  ["Cc1cc2ccccc2c(-c2c(O)c(C)nn(C)c2=O)c1C [Compound 34]", "label 1"]
]}

---

# Tested on: galium (catchweed bedstraw, Galium aparine)
# assay name: Test A greenhouse herbicide test, postemergence
# Assay type: in vivo
# condition notes: 125 g ai/ha, 0 to 100 scale, 0 no effect, 100 complete control
readout label: Plant response rating, Galium

{"columns": ["compound", "result"],
 "data": [
  ["Cc1nn(C)c(=O)c(-c2c([N+](=O)[O-])ccc3ccccc23)c1OC(=O)C1CC1 [Compound 167]", 70],
  ["CCC(=O)Oc1c(Br)nn(C)c(=O)c1-c1c(C)ccc2ccccc12 [Compound 156]", 100],
  ["CC(=O)Oc1c(Cl)nn(C)c(=O)c1-c1c(C)sc2ccc(C(F)(F)F)cc12 [Compound 152]", 60],
  ["Cc1nn(C)c(=O)c(-c2ccc(Cl)c3ccccc23)c1OC(=O)C(F)(F)F [Compound 159]", 100]
]}

Data origin, for the record: patent US10597388B2
